Molecular target: AMP-activated protein kinase, AMPK (Homo sapiens) (UniProt P54646+O43741+P54619+Q9UGJ0+Q9Y478+Q13131+Q9UGI9)
Assay: AMP-dependent Kinase enzyme assay. An in vitro enzyme assay that detects ADP turnover that is directly proportional to AMPK activity. This uses naive AMPK that is activated during the assay with MK-8722
Assay type: functional
Set-up: scale not given: direction of the effect not stated beside the values
Settings: 30 µM
OUTCOME_MEASURE: Percent Effect (%)
Give just the numeric value; % need not be written.

# count of solved cases: 5
molecule=Cc1ncccc1Oc1nccnc1C1CCN(C(C)C)CC1 recorded_result=1.33
molecule="Cc1cnc(CN(C)C2CCN(CC(=O)Nc3c(C)n[nH]c3C)C2)o1 (stereo unspecified)" recorded_result=14.2
molecule="COCCn1cc2c(n1)C(CNCc1ccco1)OCC2 (stereo unspecified)" recorded_result=0.854
molecule="O=C(Nc1ccccc1)C1CN(CC2CC2)CC12CCOCC2 (stereo unspecified)" recorded_result=7.28
molecule="Cc1ccc(OCCNC(=O)C(C)n2cncn2)cc1 (stereo unspecified)" recorded_result=7.61

May I ask what Percent Effect has been recorded for "COc1cccc(S(=O)(=O)CCN2CCCN(C(C)=O)CC2)c1" ?
-1.44

May I ask what Percent Effect has been recorded for "CO[C@@H]1CCN(Cc2cnn(C)c2)[C@@H]2CN(Cc3ccco3)C[C@@H]21" ?
5.3

May I ask what Percent Effect has been recorded for CCc1n[nH]c(C2CN(C(=O)c3cc4c(s3)CCCC4)CCO2)n1 (stereo unspecified) ?
0.0672

May I ask what Percent Effect has been recorded for CSc1cccc(CN(C)C(=O)C2CC(=O)N(CCN(C)C)C2)c1 (stereo unspecified) ?
-12.1

May I ask what Percent Effect has been recorded for "CSCCCN1CCn2nc(CNC(C)=O)cc2C1" ?
6.86

May I ask what Percent Effect has been recorded for "Cn1cc(C(=O)N[C@@H]2CN(Cc3cccs3)[C@@H]3CCCO[C@@H]32)cn1" ?
-3.04
